Source of measurements: paper PMC10663500

ASSAY TARGET: T1, human programmed cell death protein 1 (hPD-1) C93S (aa 24-167) (Homo sapiens, UniProt Q15116, C93S)
T1 construct: made as a fusion with a TEV site and human Fc; the Fc was cut off with TEV protease; source: Expi293F, purified (Protein A, TEV cleavage of Fc, SEC; monomer fractions); not shown: Fc (human), C-terminal, cleaved
T1 sequence (Q15116 24-167 C93S): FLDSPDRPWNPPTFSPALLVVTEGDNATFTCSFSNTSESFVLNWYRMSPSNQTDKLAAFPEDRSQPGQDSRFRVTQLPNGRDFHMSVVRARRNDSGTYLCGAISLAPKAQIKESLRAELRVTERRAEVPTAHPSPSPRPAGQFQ
METHOD NOTES: SPR; Carterra LSA; Fab from the ammonium sulfate precipitate of the culture supernatant immobilised on a NiHC200M chip; hPD-1 (1-1024 nM) or mPD-1-Fc (4-1024 nM) as analyte, fourfold dilution series, no regeneration; HBS-EP pH 7.4, 25 °C; medians over the spots of a construct, KD = koff/kon
MEASUREMENT CONTEXT: one partner purified
MEASURED PARAMETER: kon (M⁻¹ s⁻¹)
# value in M⁻¹ s⁻¹; strip the unit string

Example entries and their recorded answers appear below.
INSERT INTO results (binder, measured_parameter, readout_value) VALUES
  ('toripalimab Fab L.G34Y (Fab, V domains shown, as the heavy chain of Sm3; light chain of Sm3 with this change; numbers count from the chain''s first residue; source: Brevibacillus, culture supernatant (ammonium sulfate precipitate); not shown: 6xHis, C-terminal, kept; 6xHN, C-terminal, kept) VH: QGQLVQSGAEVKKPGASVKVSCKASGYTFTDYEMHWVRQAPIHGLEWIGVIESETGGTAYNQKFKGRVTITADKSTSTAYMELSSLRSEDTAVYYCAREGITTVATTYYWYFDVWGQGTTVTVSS VL: DVVMTQSPLSLPVTLGQPASISCRSSQSIVHSNYNTYLEWYLQKPGQSPQLLIYKVSNRFSGVPDRFSGSGSGTDFTLKISRVEAEDVGVYYCFQGSHVPLTFGQGTKLEIK', 'kon', 22500),
  ('toripalimab Fab L.Q95A (Fab, V domains shown, as the heavy chain of Sm3; light chain of Sm3 with this change; numbers count from the chain''s first residue; source: Brevibacillus, culture supernatant (ammonium sulfate precipitate); not shown: 6xHis, C-terminal, kept; 6xHN, C-terminal, kept) VH: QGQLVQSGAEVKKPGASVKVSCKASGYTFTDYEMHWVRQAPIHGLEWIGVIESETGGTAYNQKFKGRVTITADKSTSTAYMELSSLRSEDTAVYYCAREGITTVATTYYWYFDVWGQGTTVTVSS VL: DVVMTQSPLSLPVTLGQPASISCRSSQSIVHSNGNTYLEWYLQKPGQSPQLLIYKVSNRFSGVPDRFSGSGSGTDFTLKISRVEAEDVGVYYCFAGSHVPLTFGQGTKLEIK', 'kon', 18500),
  ('toripalimab Fab H.Y60A (Fab, V domains shown, heavy chain of Sm3 with this change; numbers count from the chain''s first residue; as the light chain of Sm3; source: Brevibacillus, culture supernatant (ammonium sulfate precipitate); not shown: 6xHis, C-terminal, kept; 6xHN, C-terminal, kept) VH: QGQLVQSGAEVKKPGASVKVSCKASGYTFTDYEMHWVRQAPIHGLEWIGVIESETGGTAANQKFKGRVTITADKSTSTAYMELSSLRSEDTAVYYCAREGITTVATTYYWYFDVWGQGTTVTVSS VL: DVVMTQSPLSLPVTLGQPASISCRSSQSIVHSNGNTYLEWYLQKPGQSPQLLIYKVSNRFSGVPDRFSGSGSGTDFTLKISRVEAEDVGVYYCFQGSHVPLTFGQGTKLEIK', 'kon', 32300),
  ('toripalimab Fab L.S61A (Fab, V domains shown, as the heavy chain of Sm3; light chain of Sm3 with this change; numbers count from the chain''s first residue; source: Brevibacillus, culture supernatant (ammonium sulfate precipitate); not shown: 6xHis, C-terminal, kept; 6xHN, C-terminal, kept) VH: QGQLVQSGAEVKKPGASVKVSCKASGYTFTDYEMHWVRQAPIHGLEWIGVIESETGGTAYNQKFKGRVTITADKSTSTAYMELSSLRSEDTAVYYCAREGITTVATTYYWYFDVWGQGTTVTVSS VL: DVVMTQSPLSLPVTLGQPASISCRSSQSIVHSNGNTYLEWYLQKPGQSPQLLIYKVSNRFAGVPDRFSGSGSGTDFTLKISRVEAEDVGVYYCFQGSHVPLTFGQGTKLEIK', 'kon', 19600),
  ('toripalimab Fab L.F60A (Fab, V domains shown, as the heavy chain of Sm3; light chain of Sm3 with this change; numbers count from the chain''s first residue; source: Brevibacillus, culture supernatant (ammonium sulfate precipitate); not shown: 6xHis, C-terminal, kept; 6xHN, C-terminal, kept) VH: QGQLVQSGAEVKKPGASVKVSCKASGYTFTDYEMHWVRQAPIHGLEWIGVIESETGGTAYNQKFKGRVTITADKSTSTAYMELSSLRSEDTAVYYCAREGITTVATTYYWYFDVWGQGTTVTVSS VL: DVVMTQSPLSLPVTLGQPASISCRSSQSIVHSNGNTYLEWYLQKPGQSPQLLIYKVSNRASGVPDRFSGSGSGTDFTLKISRVEAEDVGVYYCFQGSHVPLTFGQGTKLEIK', 'kon', 14900);

The binder listed as toripalimab Fab H.T102Y (Fab, V domains shown, heavy chain of Sm3 with this change; numbers count from the chain's first residue; as the light chain of Sm3; source: Brevibacillus, culture supernatant (ammonium sulfate precipitate); not shown: 6xHis, C-terminal, kept; 6xHN, C-terminal, kept) VH: QGQLVQSGAEVKKPGASVKVSCKASGYTFTDYEMHWVRQAPIHGLEWIGVIESETGGTAYNQKFKGRVTITADKSTSTAYMELSSLRSEDTAVYYCAREGIYTVATTYYWYFDVWGQGTTVTVSS VL: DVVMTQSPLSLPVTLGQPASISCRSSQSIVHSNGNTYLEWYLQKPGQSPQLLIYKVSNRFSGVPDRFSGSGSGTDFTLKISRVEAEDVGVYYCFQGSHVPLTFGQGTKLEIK shows kon equal to 7420
